# Test system: HOP-62 NSCLC
# Assay Name: NCI-60 one-dose screen, 48 h
# Assay Conditions: 10 µM unless noted
The panel holds about 83,000 compounds, 20% with a hit somewhere; the sample as a whole holds those more often. Active and inactive are the calls of the source. How the source made its calls: active means growth percent below 10; inactive means the rest.
Mark one answer only. Choices: Y = active, N = inactive

-- ask Entry "CN(C)C(=S)SCN1C(=O)c2ccc([N+](=O)[O-])cc2S1(=O)=O" : call = ?
-- reply N

-- ask Entry "O=C(O)c1ccccc1Oc1cc(-c2ccco2)nc(OCCBr)n1" : call = ?
-- reply N

-- ask Entry "COc1cc2cc(Oc3ccc(NC(=O)Nc4cccc(C(F)(F)F)c4)cc3)c(C)nc2cc1OCCN1CCCCC1" : call = ?
-- reply Y

-- ask Entry "COC(=O)[C@H]1CCCN1C(=O)[C@H]1CCCN1C(=O)[C@@H](Cc1c[nH]c2ccccc12)NC(=S)Nc1cc(C(F)(F)F)cc(C(F)(F)F)c1" : call = ?
-- reply N

-- ask Entry "c1ccc2cc(-c3n(Cc4ccc5ccccc5n4)c4ccccc4[n+]3Cc3ccc4ccccc4n3)ccc2c1" : call = ?
-- reply Y
